target: Calpain-1 catalytic subunit (Homo sapiens, UniProt P07384); assay: The calpain inhibitory activity(I 50) was measured as ability to enter the platelet to inhibit calpain after cell lysis(assay 2); conditions: read-out: I50
Sequence (P07384 whole entry): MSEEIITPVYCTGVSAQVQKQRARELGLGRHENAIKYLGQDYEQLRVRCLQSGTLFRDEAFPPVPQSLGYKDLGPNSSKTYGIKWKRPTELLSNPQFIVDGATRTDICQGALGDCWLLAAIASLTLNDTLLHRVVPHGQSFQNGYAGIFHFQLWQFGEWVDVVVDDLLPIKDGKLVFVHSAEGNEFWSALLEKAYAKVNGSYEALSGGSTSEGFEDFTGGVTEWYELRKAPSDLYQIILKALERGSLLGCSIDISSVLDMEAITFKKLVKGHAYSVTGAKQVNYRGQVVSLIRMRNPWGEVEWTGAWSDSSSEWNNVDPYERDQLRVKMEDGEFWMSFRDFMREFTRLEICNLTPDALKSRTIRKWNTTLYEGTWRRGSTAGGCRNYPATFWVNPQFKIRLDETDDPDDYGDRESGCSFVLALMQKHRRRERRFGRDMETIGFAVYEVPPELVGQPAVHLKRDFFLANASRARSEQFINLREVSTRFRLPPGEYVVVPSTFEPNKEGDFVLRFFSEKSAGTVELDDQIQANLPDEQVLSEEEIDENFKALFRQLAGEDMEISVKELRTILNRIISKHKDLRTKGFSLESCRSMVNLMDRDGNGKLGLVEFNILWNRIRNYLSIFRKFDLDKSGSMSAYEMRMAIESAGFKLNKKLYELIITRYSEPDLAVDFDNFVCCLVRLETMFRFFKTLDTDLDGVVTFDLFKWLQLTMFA
pIC50: −log10 of the molar value.
property label: pIC50

Guide cases for pIC50, answers given:
CC(C)CCNC(=O)[C@H](CC(C)C)NC(=O)[C@H]1O[C@@H]1C(=O)OCCBr ... 5.70
CC(C)CCNC(=O)[C@H](CC(C)C)NC(=O)[C@H]1O[C@@H]1C(=O)OCCF ... 5.52
CC(C)CCNC(=O)[C@H](CC(C)C)NC(=O)[C@H]1O[C@@H]1C(=O)OCC(Br)(Br)Br ... 5.30
CC(C)CCNC(=O)[C@H](CC(C)C)NC(=O)[C@H]1O[C@@H]1C(=O)OCCI ... 5.22
CC(C)CCNC(=O)[C@H](CC(C)C)NC(=O)[C@H]1O[C@@H]1C(=O)NCCc1c[nH]c2ccc(O)cc12 ... 5.40
CC(C)CCNC(=O)[C@H](CC(C)C)NC(=O)[C@H]1O[C@@H]1C(=O)OCC(F)(F)F ... 5.70
CC(C)CCNC(=O)[C@H](CC(C)C)NC(=O)[C@H]1O[C@@H]1C(=O)OCc1ccccc1Cl ... 5.70

1 = CC(C)CCNC(=O)[C@H](CC(C)C)NC(=O)[C@H]1O[C@@H]1C(=O)OCCCl
2 = CC(C)CCNC(=O)[C@H](CC(C)C)NC(=O)[C@H]1O[C@@H]1C(=O)Oc1ccc2[nH]cc(CCNC(=O)OC(C)(C)C)c2c1
3 = CCOC(=O)[C@H]1O[C@@H]1C(=O)N[C@@H](CC(C)C)C(=O)NCCC(C)C [ALOXISTATIN]
4 = CC(C)CCNC(=O)[C@H](CC(C)C)NC(=O)[C@H]1O[C@@H]1C(=O)OCC(Cl)(Cl)Cl
Which order do these items take when sorted by rising pIC50? List them. List labels; respect the requested ordering.
3, 2, 4, 1
(3: 5.40, 2: 5.70, 4: 6.00, 1: 6.52)
